Every entry's value here was drawn from patent US4551532A.

Reported values: MIC for Cochliobolus miyabeanus, one per item.
Give bare numbers, in µg/mL.

Compound | MIC / µg/mL
CCCCCCCCCCCCCCOCCOCCOP(=O)(O)OCCN [Example 24, 3,6-Dioxaeicosyl 2-aminoethyl phosphate] | 100

Dear colleague, could you send me MIC for each of the items below? Thanks.
1. CCCCCCCCCCCCOCCOCCOP(=O)(O)OCCN
2. CCCCCCCC/C=C\CCCCCCCCOCCOCCOP(=O)([O-])OCC[N+](C)(C)C
3. CCCCCCCCCCCCCOCCOCCOP(=O)([O-])OCC[N+](C)(C)C
4. CCCCCCCCCCCCOCCOCCOCCOP(=O)([O-])OCC[n+]1ccccc1
5. CCCCCCCCCCCCOCCOCCOP(=O)([O-])OCC[n+]1ccccc1
6. CCCCCCCCCCCCOCCOCCOCCOP(=O)(O)OCCN

Output:
[50, 25, 25, 25, 25, 50]

----------
Tested on: Tetrahymena pyriformis W strain
Assay: antiprotozoal activity, broth dilution method
Assay type: cell-based
Details: 28° C., 44-48 hours, pH 7.0, read-out: Growth inhibition MIC Tetrahymena
Readout: MIC

Some entries whose results are on file:
Item smiles | MIC
CCCCCCCCCCCCOCCOCCOP(=O)([O-])OCC[n+]1ccccc1 | > 4 µg/mL
CCCCCCCC/C=C\CCCCCCCCOCCOCCOP(=O)(O)OCCNC(C)(C)C | > 4 µg/mL
CCCCCCCC/C=C\CCCCCCCCOCCOCCOCCOCCOP(=O)(O)OCCN | > 4 µg/mL
CCCCCCCCCCCCCOCCOCCOP(=O)([O-])OCC[N+](C)(C)C | ≤ 1 µg/mL

Task: Which MIC is reported for this compound? `CCCCCCCCCCCCCCCCCCOCCOCCOP(=O)([O-])OCC[N+](C)(C)C`
Output: ≥ 4 µg/mL
